tgt: UniProtKB Q96P20
measurementProtocol: Human PBMC NLRP3 Assay (LPS priming, ATP stimulation, cytokine measurement)
Assay type: cell-based
conditions: human PBMC, LPS priming, ATP stimulation; read-out: PBMC IC50
resultType: IC50

| compound | valueMeasured |
| --- | --- |
| C[C@@H]1CCN(c2nnn[nH]2)C[C@H](NC(=O)C2(c3ccc(C(F)F)cc3O)CC2)C1 (single isomer, unassigned) [30A*] | < 10 nM |
| C[C@@H]1CCN(c2nnn[nH]2)C[C@H](NC(=O)C2(c3ccc(Cl)cc3Cl)CC2)C1 (single isomer, unassigned) [55A*] | 10 to 100 nM |
| C[C@@H]1CCN(c2nnn[nH]2)C[C@H](NC(=O)C2(c3ccc(C(F)(F)F)c(OC(F)F)c3)CC2)C1 (single isomer, unassigned) [54A*] | 10 to 100 nM |
| C[C@@H]1CCN(c2nnn[nH]2)C[C@H](NC(=O)C2(c3ccc(C4CC4)cc3)CC2)C1 (single isomer, unassigned) [2A*] | 10 to 100 nM |
| C[C@@H]1CCN(c2nnn[nH]2)C[C@H](NC(=O)C2(c3ccc(OC(F)F)cc3F)CC2)C1 (single isomer, unassigned) [3A*] | 10 to 100 nM |
| C[C@H]1C[C@@H](NC(=O)C2(c3ccc(OC(F)(F)F)cc3O)CC2)CN(c2nnn[nH]2)C1 [Compound 17A] | 10 to 100 nM |
| C[C@@H]1CCN(c2nnn[nH]2)C[C@H](NC(=O)C2(c3ccc(SC(F)(F)F)cc3)CC2)C1 (single isomer, unassigned) [69A*] | 10 to 100 nM |
| C[C@H]1C[C@@H](NC(=O)C2(c3c(O)cc(C4CC4)cc3C(F)F)CC2)CN(c2nnn[nH]2)C1 (single isomer, unassigned) [97A*] | 100 to 500 nM |
| C[C@H]1CCN(c2nnn[nH]2)C[C@H](NC(=O)C2(c3ccc(Cl)c(F)c3O)CC2)C1 (single isomer, unassigned) [18C*] | 100 to 500 nM |
| C[C@@H]1CCN(c2nnn[nH]2)C[C@H](NC(=O)C2(c3ccc(Cl)cc3)CC2)C1 (single isomer, unassigned) [12A*] | < 10 nM |
| C[C@@H]1CCN(c2nnn[nH]2)C[C@@H](NC(=O)C2(c3ccc(OC(F)(F)F)cc3O)CC2)C1 (single isomer, unassigned) [62B*] | 10 to 100 nM |
| C[C@H]1C[C@@H](NC(=O)C2(c3ccc(C(F)(F)F)cc3O)CC2)CN(c2nnn[nH]2)C1 [Compound 16A] | < 10 nM |
| O=C(N[C@@H]1CCCCN(c2nnn[nH]2)C1)C1(c2ccc(Cl)cc2)CC1 [Compound 51A] | 10 to 100 nM |

###

Listed next: entries and their corresponding IC50.
tgt: human NLRP3 (Homo sapiens (Human), UniProt Q96P20)
Sequence (Q96P20 whole entry): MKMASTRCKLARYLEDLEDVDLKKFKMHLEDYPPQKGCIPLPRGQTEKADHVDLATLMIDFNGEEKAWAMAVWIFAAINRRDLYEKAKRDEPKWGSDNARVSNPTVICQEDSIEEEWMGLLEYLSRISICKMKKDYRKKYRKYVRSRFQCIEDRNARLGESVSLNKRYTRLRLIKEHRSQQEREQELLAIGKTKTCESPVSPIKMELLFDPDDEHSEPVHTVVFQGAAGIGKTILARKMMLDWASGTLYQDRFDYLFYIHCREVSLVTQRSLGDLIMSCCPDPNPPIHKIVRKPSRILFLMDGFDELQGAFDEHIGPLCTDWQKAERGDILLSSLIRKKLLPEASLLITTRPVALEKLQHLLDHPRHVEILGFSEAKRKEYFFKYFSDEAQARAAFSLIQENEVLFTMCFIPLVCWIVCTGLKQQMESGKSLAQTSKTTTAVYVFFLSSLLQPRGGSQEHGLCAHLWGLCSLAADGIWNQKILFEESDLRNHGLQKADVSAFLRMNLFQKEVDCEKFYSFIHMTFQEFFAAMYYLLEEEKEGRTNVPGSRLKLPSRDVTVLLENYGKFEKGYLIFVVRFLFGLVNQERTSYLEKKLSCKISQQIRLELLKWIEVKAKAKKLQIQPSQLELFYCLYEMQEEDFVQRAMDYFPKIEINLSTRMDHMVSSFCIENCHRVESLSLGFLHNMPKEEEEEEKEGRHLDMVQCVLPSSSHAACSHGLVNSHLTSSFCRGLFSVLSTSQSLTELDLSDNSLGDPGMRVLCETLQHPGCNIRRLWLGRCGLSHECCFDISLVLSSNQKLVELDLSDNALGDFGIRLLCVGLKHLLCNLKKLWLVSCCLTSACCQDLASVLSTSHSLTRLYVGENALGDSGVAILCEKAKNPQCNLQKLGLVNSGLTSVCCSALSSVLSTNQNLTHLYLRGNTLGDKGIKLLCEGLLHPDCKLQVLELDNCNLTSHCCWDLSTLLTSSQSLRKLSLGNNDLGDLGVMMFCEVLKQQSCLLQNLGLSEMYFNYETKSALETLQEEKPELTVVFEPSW
measurementProtocol: Human Whole Blood (hWB) NLRP3 Assay (LPS/ATP, IL-1β)
Assay type: cell-based
conditions: human whole blood, LPS/ATP, IL-1β; read-out: hWB IC50
resultType: IC50

| molecule | tgt | valueMeasured |
| --- | --- | --- |
| C[C@@H]1CCN(c2nnn[nH]2)C[C@H](NC(=O)C2(c3ccc(C(F)(F)F)cc3O)CC2)C1 (single isomer, unassigned) [63A*] | human NLRP3 (Homo sapiens (Human), UniProt Q96P20) | < 1 µM |
| C[C@H]1CCN(c2nnn[nH]2)C[C@@H]1NC(=O)C1(c2ccc(Cl)cc2)CC1 [Compound 49C] | human NLRP3 (Homo sapiens (Human), UniProt Q96P20) | 2 to 3 µM |
| C[C@@H]1CCN(c2nnn[nH]2)C[C@H](NC(=O)C2(c3ccc(OC(F)F)cc3)CC2)C1 (single isomer, unassigned) [58A*] | human NLRP3 (Homo sapiens (Human), UniProt Q96P20) | < 1 µM |
| C[C@H]1C[C@@H](NC(=O)C2(c3ccc(C(F)(F)F)cc3O)CC2)CN(c2nnn[nH]2)C1 [Compound 16A] | human NLRP3 (Homo sapiens (Human), UniProt Q96P20) | < 1 µM |
| C[C@@H]1CCN(c2nnn[nH]2)C[C@@H](NC(=O)C2(c3ccc(Cl)cc3O)CC2)C1 (single isomer, unassigned) [60B*] | human NLRP3 (Homo sapiens (Human), UniProt Q96P20) | < 1 µM |
| Cc1ccc(C2(C(=O)N[C@@H]3C[C@@H](C)[C@@H]4CC[C@H]3N4c3nnn[nH]3)CC2)cc1 [87A*] | human NLRP3 (Homo sapiens (Human), UniProt Q96P20) | 1 to 2 µM |
| O=C(N[C@@H]1CCCCN(c2nnn[nH]2)C1)C1(c2ccc(Cl)cc2)CC1 [Compound 51A] | human NLRP3 (Homo sapiens (Human), UniProt Q96P20) | < 1 µM |

Values were extracted from patent US20260007684A1.
